- test.description: Quantitative High-Throughput drug screen in 47 multiple myeloma cell lines against the NCATS MIPE library collection: RPMI8226_ATCC cell viability assay (AID 1919871); note: nearly all actives have a fitted effect of over 30% in size
- experimental.conditions: RPMI8226 myeloma viability, CellTiter-Glo ATP luminescence, 48 h; series mostly up to 45.8 µM
- Description: PI: Beverly A. Mock Ph.D. Laboratory of Cancer Biology and Genetics, Center for Cancer Research, National Cancer Institute, National Institute of Health, Bethesda, Maryland […] 5; Detector; 425V; Luminescence; Viewlux PerkinElmer. […] 1. […] Briefly, the corresponding myeloma cell lines were screened in 1,536-well plates with 500 cells, 5-uL per well for inhibition of cell viability (assessed by measuring ATP levels with CellTiterGlo). […]
Inconclusive results are not listed. Calls of active or inactive are those of the source. Calls come from the whole dose curve; as a rule, active = well fitted cell-killing curve with a large enough effect; inconclusive = small, poorly fitted or top-dose-only effect, or effect the other way; inactive = no such curve, though single readings can be large or run the other way.
In this exercise, the only acceptable responses are yes (active), no (inactive)

Please indicate how the test categorized O=C(NC[C@H](O)CO)c1ccncc1Nc1ccc(I)cc1F .
yes

Please indicate how the test categorized COc1cccc(OC)c1-c1cc(C(=O)NC2(C(=O)O)C3CC4CC(C3)CC2C4)nn1-c1ccnc2cc(Cl)ccc12 (stereo not given) .
no

Please indicate how the test categorized N[C@@H](CC(=O)N1CCn2c(nnc2C(F)(F)F)C1)Cc1cc(F)c(F)cc1F .
no

Please indicate how the test categorized Nc1[nH]nc2nnc(-c3c(-c4ccccc4)nn4ccccc34)cc12 .
no

Please indicate how the test categorized CC=C1C2C=C(C)CC1(N)c1ccc(=O)[nH]c1C2 (stereo not given) .
no

---

What remaining parasite growth % (stronger effect = lower value) was measured for each of the following?
- test.description: qHTS profiling for inhibitors of Plasmodium falciparum (3D7) proliferation (AID 743322);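 note: infected erythrocytes exposed to compound for 72 h before lysis; 100% = DMSO vehicle wells and 0% = 0.29 µM artemisinin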
- experimental.conditions: P. falciparum 3D7 proliferation; at 28.7 µM (top of the series) unless noted
Give bare numbers, in %.

Examples with their reported remaining parasite growth % (stronger effect = lower value) follow.
compound | unit | readout.number
O=C(O)c1ccc(O)c2ncc(N3CCOCC3)cc12 | % | 22.3
CN1C(=O)C(Cc2c[nH]c3ccccc23)NC1=S (centres undefined) | % | 109

For each of the items listed, what is its remaining parasite growth % (stronger effect = lower value)?
1. CCCCn1c(=O)n(Cc2ccccc2F)c(=O)c2[nH]c(Cc3ccc(NC(C)=O)cc3)nc21
2. O=C1C(CCC(O)c2ccc(F)cc2)C(c2ccc(O)cc2)N1c1ccc(F)cc1 (centres undefined)

71.1
18.4

For each of the items listed, what is its remaining parasite growth % (stronger effect = lower value)?
1. CCOC(=O)[C@@H](N)CCC(=O)N[C@@H](CSCc1ccccc1)C(=O)N[C@@H](C(=O)OCC)c1ccccc1
2. CN(C)CC[C@H](CSc1ccccc1)Nc1ccc(S(=O)(=O)NC(=O)c2ccc(N3CCN(Cc4ccccc4-c4ccc(Cl)cc4)CC3)cc2)cc1[N+](=O)[O-]

1: 51.1; 2: 11.6

For each of the items listed, what is its remaining parasite growth % (stronger effect = lower value)?
1. CC(C)CNc1ccnc(NCc2csc(-c3ccccc3)n2)n1
2. Cn1cc(-c2ccc3nnc(Sc4ccc5ncccc5c4)n3n2)cn1
3. Cc1cc2c(cc1C1(c3ccc(C(=O)O)cn3)CC1)C(C)(C)CCC2(C)C

[3.03, 74.3, 101]

---

- test.description: Quantitative High-Throughput drug screen in 47 multiple myeloma cell lines against the NCATS MIPE library collection: MM1S_ATCC cell viability assay (AID 1918980); note: nearly all actives have a fitted effect of over 45% in size; note: potency is the fitted concentration of half-maximal effect
- experimental.conditions: MM1S myeloma viability, CellTiter-Glo ATP luminescence, 48 h; series mostly up to 45.8 µM
Inconclusive results are not listed. Activity calls are given as the source filed them. Calls follow the shape of the dose curve; as a rule, active = well fitted cell-killing curve with a large enough effect; inconclusive = small, poorly fitted or top-dose-only effect, or effect the other way; inactive = no such curve, though single readings can be large or run the other way.
value.kind: Potency

chemical.smiles | Potency
C[C@@H]1C[C@H]2[C@@H]3CCC4=CC(=O)C=C[C@]4(C)[C@@]3(F)[C@@H](O)C[C@]2(C)[C@@]1(O)C(=O)CO | 0.0264 µM (active)
CC(C)(CO)[C@@H](O)C(=O)NCCC(=O)O | inactive
Cc1cn([C@@H]2C[C@@H](O)[C@H](CO)O2)c(=O)[nH]c1=O | inactive
COc1cc2nccc(Oc3ccc(NC(=O)Nc4cc(C)on4)c(Cl)c3)c2cc1OC | 6.62 µM (active)
CCC(=O)NCC[C@@H]1CCc2ccc3c(c21)CCO3 | 1.48 µM (active)

For each of the items listed, what is its Potency?
1. Cc1ccccc1C(=O)c1ccc(Nc2ccc(Br)cc2N)cc1Cl
2. Nc1ncnc2c1ncn2[C@@H]1O[C@H](CO)[C@@H](O)[C@@H]1O
3. C[C@]12CCC3=C4CCC(=O)C=C4CC[C@@H]3[C@H]1CC[C@@]2(O)CC#N
4. O=C(O)C1=CO[C@@H](O[C@@H]2O[C@H](CO)[C@H](O)[C@H](O)[C@H]2O)[C@@H]2C(CO)=CC[C@H]12

["6.62 µM (active)", "0.743 µM (active)", "inactive", "16.6 µM (active)"]

---

- test.description: qHTS Assay for Identification of Small Molecule Antagonists for NFkB Signaling Pathway. (AID 624479);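 note: pathway stimulated with TNF alpha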
- experimental.conditions: NFkB pathway reporter cell assay, antagonist mode; series mostly up to 38.3 µM
Active and inactive are the calls of the source. Calls follow the shape of the full dose curve.
In this exercise, the only acceptable responses are yes (1) for active, no (0) for inactive

Past entries and their recorded results:
compound | group.label
CNC(=O)c1cc(Oc2ccc(NC(=O)Nc3ccc(Cl)c(C(F)(F)F)c3)c(F)c2)ccn1 | yes (1)
CCc1cc(-c2n[nH]c(C)c2-c2ccc3c(c2)OCCO3)c(O)cc1O | yes (1)
CCC(=O)N1CCN(c2ccc(-n3c(=O)ccc4cnc5ccc(-c6cnc7ccccc7c6)cc5c43)cc2C(F)(F)F)CC1 | yes (1)
Cc1nn(Cc2ccccc2Cl)c(C)c1CN(C)CC(O)COc1ccc(Cl)cc1 (centres undefined) | no (0)

Please indicate how the test categorized CCNC(=O)c1noc(-c2cc(C(C)C)c(O)cc2O)c1-c1ccc(CN2CCOCC2)cc1 .
yes (1)

Please indicate how the test categorized C[C@@H](O[C@H]1OCCN(Cc2n[nH]c(=O)[nH]2)[C@@H]1c1ccc(F)cc1)c1cc(C(F)(F)F)cc(C(F)(F)F)c1 .
yes (1)

Please indicate how the test categorized CCCCc1ccc(NS(=O)(=O)c2ccc(C)c(C(=O)N3CCN(c4cccc(C)c4C)CC3)c2)cc1 .
yes (1)

Please indicate how the test categorized CC(O)=C(C#N)C(=O)Nc1ccc(C(F)(F)F)cc1 .
yes (1)

Please indicate how the test categorized CN1C(=O)C(Cc2c[nH]c3ccccc23)NC1=S (centres undefined) .
no (0)

---

- test.description: qHTS for identification of novel therapeutic agents for treatment of microphthalmiaassociated transcription factor (MiT) renal cell carcinoma (RCC) (AID 1963991);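 note: curves scaled with 100% = DMSO viability and 0% = empty wells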
- experimental.conditions: TFE3-RCC UOK109 viability, CellTiter-Glo, 48 h; measured here: UOK109 Z-AUC; stronger effect = lower value
Records with an inconclusive call do not appear.
value.kind: z-score

compound | z-score
C#CCN(C)CC1=Cc2ccccc2Oc2ccccc21 | -0.41
CCC[C@H](N[C@@H](C)C(=O)N1[C@@H]2CCCC[C@H]2C[C@H]1C(=O)O)C(=O)OCC | 0.586
C[C@]12CCC3=C4CCC(=O)C=C4CC[C@@H]3[C@H]1CC[C@@]2(O)CC#N | 0.693
Cc1ccc(C(=O)N(CCCN)[C@@H](c2nc3cc(Cl)ccc3c(=O)n2Cc2ccccc2)C(C)C)cc1 | -2.23
O=C(O)C1=CC(O)C(O)[C@H](O)C1 (some centres not stated) | 1.04
Cc1cc(OCCCS(C)(=O)=O)cc(C)c1-c1cccc(COc2ccc3c(c2)OC[C@H]3CC(=O)O)c1 | 0.542
O=C(O)c1nc(=O)[nH]c(=O)[nH]1 | 1.29
Cc1ccc(S(=O)(=O)OCC(=O)Nc2ccc(C(=O)O)c(O)c2)cc1 | -0.0907

For each of the items listed, what is its z-score?
1. CC(NCCc1ccc(O)cc1)C(O)c1ccc(O)cc1 (configuration not stated)
2. C[C@@H](O)[C@H]1C(=O)N2C(C(=O)OCOC(=O)C(C)(C)C)=C(SC3CN(C4=NCCS4)C3)[C@H](C)[C@H]12
3. C[C@@H]1CCO[C@H]2Cn3cc(C(=O)NCc4ccc(F)cc4F)c(=O)c(O)c3C(=O)N12
4. N=C1SC(=Cc2ccc(-c3ccc4c(c3)C(=O)NC4=O)o2)C(=O)N1c1ccc(Br)cc1
5. CCOC(=O)[C@H]1O[C@H]1C(=O)N[C@@H](CC(C)C)C(=O)NCCC(C)C
6. C[C@@H]1O[C@@H](O[C@H]2CC[C@@]3(C)[C@H](CC[C@@H]4[C@H]3C[C@@H](O)[C@]3(C)[C@@H](C5=CC(=O)OC5)CC[C@]43O)C2)C[C@H](O)[C@@H]1O[C@H]1C[C@H](O)[C@H](O[C@H]2C[C@H](O)[C@@H](O)[C@@H](C)O2)[C@H](C)O1 (stereo in doubt)
7. CCNC(=O)[C@H]1O[C@@H](n2cnc3c(N)nc(NCCc4ccc(CCC(=O)O)cc4)nc32)[C@H](O)[C@H]1O
8. CC1(C)CC(=O)c2c(C(F)(F)F)nn(-c3ccc(C(N)=O)c(NC4CCC(O)CC4)c3)c2C1 (configuration not stated)

1: 0.72; 2: 1.65; 3: 0.807; 4: 0.374; 5: 0.719; 6: -2.46; 7: 0.882; 8: -1.31

For this compound ( CCOC(=O)[C@@H](N)CCC(=O)N[C@@H](CSCc1ccccc1)C(=O)N[C@@H](C(=O)OCC)c1ccccc1 ), measured z-score is -0.0164
